All figures here come from the kinase profiling compilation of Christmann-Franck et al. (2016).

Below is a list of entries, each paired with its recorded kinase still bound, per cent of control value.
biological target: TXK (human); assay: KINOMEscan competition binding; conditions: compound 10.0 µM
Attribute measured: kinase still bound, per cent of control (%)

1) CCCS(=O)(=O)Nc1ccc(F)c(C(=O)c2c[nH]c3ncc(Cl)cc23)c1F :: 69
2) N#C/C(=C1/Nc2ccccc2S1)c1ccnc(NCCc2cccnc2)n1 :: 61
3) COc1cc(C)c(Sc2cnc(NC(=O)c3ccc(CNC(C)C(C)C)cc3)s2)cc1C(=O)N1CCN(C(C)=O)CC1 (stereo not given) :: 100
4) CCOc1cc(N2CCC(O)CC2)ccc1Nc1ncc2c(n1)N(C)c1ccccc1C(=O)N2C :: 100
5) C=CC(=O)Nc1ccc(C(=O)c2sc(Nc3ccc(N4CCN(C)CC4)cc3OC)nc2N)cc1 :: 100
